- experimental-target: furin, P09958;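 note: purified furin at 1:10 enzyme:substrate in 50 mM HEPES pH 7.5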
- Sequence (P09958 whole entry): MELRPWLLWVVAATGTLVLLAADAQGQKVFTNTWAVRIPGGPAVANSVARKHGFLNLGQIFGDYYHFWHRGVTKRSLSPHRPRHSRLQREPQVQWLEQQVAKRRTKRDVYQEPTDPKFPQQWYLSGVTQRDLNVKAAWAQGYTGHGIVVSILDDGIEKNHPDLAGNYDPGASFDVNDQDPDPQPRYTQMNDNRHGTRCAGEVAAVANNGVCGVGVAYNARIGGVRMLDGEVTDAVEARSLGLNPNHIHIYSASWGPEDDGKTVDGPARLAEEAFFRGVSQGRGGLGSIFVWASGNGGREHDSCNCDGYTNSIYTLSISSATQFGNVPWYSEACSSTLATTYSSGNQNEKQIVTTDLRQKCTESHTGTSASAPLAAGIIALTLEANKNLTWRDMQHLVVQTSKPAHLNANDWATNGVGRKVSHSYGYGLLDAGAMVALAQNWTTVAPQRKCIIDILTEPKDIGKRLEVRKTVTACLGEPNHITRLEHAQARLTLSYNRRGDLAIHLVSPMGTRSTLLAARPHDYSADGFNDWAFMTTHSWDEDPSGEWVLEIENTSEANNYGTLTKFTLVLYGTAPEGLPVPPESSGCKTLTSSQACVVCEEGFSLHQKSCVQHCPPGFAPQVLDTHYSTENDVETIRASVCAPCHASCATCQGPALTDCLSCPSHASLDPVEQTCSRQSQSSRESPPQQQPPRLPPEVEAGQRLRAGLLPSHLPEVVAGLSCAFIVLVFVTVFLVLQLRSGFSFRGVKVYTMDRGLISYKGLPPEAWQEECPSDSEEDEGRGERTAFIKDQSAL
- assay-notes: furin cleavage Z-score vs untreated control; higher = more cleavage, active = 3.5 or more, inactive = 1 or less, 8 variable residues between constant flanks
- assay-setup: 30 min
This is one part of the list. The true hit rate is not given.
Use one of these outcomes when replying: active, inactive

CARARRGPSPAGNASASA [FS-2131]    inactive
CAKLNRRSRKAGNASASA [FS-810]    active
CARRKRKVLHAGNASASA [FS-2515]    active
CAGPLWILQAAGNASASA [HC609]    inactive
CARHYKSASPAGNASASA [FS-1718]    inactive
CAERLRQKRIAGNASASA [FS-1194]    active
CAPPCVIGGAAGNASASA [HC444]    inactive
CAVRSRMRRAAGNASASA [FS-1500]    active

Entry CARCRKSCEHAGNASASA [FS-1997] : call = ?
inactive

Entry CAREIRSEEPAGNASASA [FS-2005] : call = ?
inactive

Entry CAVRSRHLRAAGNASASA [FS-632] : call = ?
active

Numbers sourced from the supplement of paper PMC3545927.
